System: NCI/ADR-RES ovarian
procedureText: NCI-60 one-dose screen, 48 h
assaySetup: 10 µM unless noted
Experimental: Growth inhibition of the NCI/ADR-RES human […] tumor cell line is measured as a screen for anti-cancer activity. Cells are grown in 96 well plates and exposed to the test compound for 48 hours. Compounds are tested at a single concentration, which is 10^-5 M for most compounds. The reported endpoint is percent growth (GI% or GIPRCNT), where numbers from 0 - 100% represent growth inhibition, and numbers from -100% - 0 represent cell death. For example, a value of 40 represents 60% growth inhibition. […]
About 83,000 compounds went through this panel and 20% of them were active in at least one assay; those are over-represented in the sample as a whole. The source made the active and inactive calls. The calls were made as follows: active = growth percent below 10; inactive = the rest.
Please state which outcome applies, choosing from 1 = active, 0 = inactive

Task: Test call, this molecule: COCCNC(C)=O
Output: 0

Task: Test call, this molecule: Nc1c(Cl)cc2c(c1Br)C(=O)c1ccccc1C2=O
Output: 0

Task: Test call, this molecule: N=c1sc2ccccc2n1CC(=O)O
Output: 0

Task: Test call, this molecule: CCC(C)(O)CCC(C)(O)CC (configuration not stated)
Output: 0

Task: Test call, this molecule: Cc1c(Cl)c(C)c(Cc2c(C)c(Cl)c(C)c(Cl)c2O)c(O)c1Cl
Output: 1

Task: Test call, this molecule: O=S(=O)(O)c1ccc2cc(O)ccc2c1
Output: 0

Task: Test call, this molecule: CCCCCCC(C)CC1=C(O)c2ccccc2C(=O)C1=O (configuration not stated)
Output: 0

Task: Test call, this molecule: OC1CCCN(Cc2ccccc2)C1 (configuration not stated)
Output: 0

Task: Test call, this molecule: CC(=O)c1cc2ccccc2o1
Output: 0

Task: Test call, this molecule: COc1ccc2oc3c(ccc[n+]3C)c(=O)c2c1
Output: 0

Task: Test call, this molecule: C/C(=C\c1ccccc1)C(O)C(=O)c1nc2ccc([N+](=O)[O-])cc2[nH]c1=O (configuration not stated)
Output: 0

Task: Test call, this molecule: CC(C)(C)C1CCC(=NO)CC1 (configuration not stated)
Output: 0

Task: Test call, this molecule: O=C1C2=C(Nc3cc(Cl)ccc3N2)OC1c1c[nH]c2ccc(COc3ccccc3)cc12 (configuration not stated)
Output: 0

Task: Test call, this molecule: CCOP(=O)(OCC)/C(C#N)=C/c1c(C)[nH]c2ccccc12
Output: 0

Task: Test call, this molecule: COc1ccc(CCl)c(C)c1OC
Output: 0

Task: Test call, this molecule: Cc1ccc([N+](=O)[O-])cc1Br
Output: 0

Task: Test call, this molecule: CC(=O)/C(N=Nc1ccc(S(=O)(=O)c2ccc(N=N/C(C(C)=O)=C(/C)O)cc2)cc1)=C(\C)O
Output: 0

Task: Test call, this molecule: CN(C)C(=S)N(C)C
Output: 0

Task: Test call, this molecule: CC(=O)Nc1ccc2oc(=O)ccc2c1
Output: 0

Task: Test call, this molecule: CC1=CC(=O)c2cccc(NC3=NCCO3)c21
Output: 0

Task: Test call, this molecule: COc1ccc(/C=N/Nc2nc3ccccc3s2)cc1
Output: 0

Task: Test call, this molecule: Cn1c(-c2ccccc2)cc(=O)cc1-c1ccccc1
Output: 0

Task: Test call, this molecule: CCOC(C)=N
Output: 0

Task: Test call, this molecule: COc1ccc(C(=O)C(O)c2ccc(OC)cc2)cc1 (configuration not stated)
Output: 0

Task: Test call, this molecule: COC(=O)c1nc(N)nc(C(=O)OC)c1C(=O)c1ccc(F)cc1
Output: 0

Task: Test call, this molecule: O=P(O)(O)OC1C(OP(=O)(O)O)C(OP(=O)(O)O)C(OP(=O)(O)O)C(OP(=O)(O)O)C1OP(=O)(O)O.[Cu+2] (configuration not stated)
Output: 0

Task: Test call, this molecule: CS(=O)(=O)c1nsc(N)n1
Output: 0
